Catalogue of GI50 readings, one per entry.
- System: CAKI-1
- experiment-description: NCI tumour cell line growth inhibition, 48 h
Activity calls are given as the source filed them. Rule as the data show it: active = GI50 up to about 1.1 µM and inactive = higher.

compound	GI50
O=C(CC(=O)c1cccc([N+](=O)[O-])c1)C(=O)Nc1ccccc1	> 100 µM (inactive)
O=C1C2Nc3ccccc3SC2C(=O)N1c1cccc([N+](=O)[O-])c1 (stereo unspecified)	> 100 µM (inactive)
C=C(C)CN(CC#N)CC(=C)C	> 100 µM (inactive)
O=[As](O)(O)c1ccc(/N=N/c2ccc([As](=O)(O)O)cc2)cc1	> 100 µM (inactive)
CCOC(=O)NC(=O)c1cn(C2OC(CO)C(O)C2O)c(=O)[nH]c1=O (stereo unspecified)	> 100 µM (inactive)
Cc1ccccc1-n1c(=O)sc2c(=O)n(-c3ccccc3)c(=S)[nH]c21	> 100 µM (inactive)
O=C(CN1C(=O)c2ccccc2C1=O)C(O)CN1C(=O)c2ccccc2C1=O (stereo unspecified)	> 100 µM (inactive)
CCCCN(CCCC)CC(C(=O)Nc1ccc([N+](=O)[O-])cc1[N+](=O)[O-])/C(C)=N\NC(=O)C[N+](C)(C)C (stereo unspecified)	42.7 µM (inactive)
C[N+](C)(C)CCOC(=O)/C=C/c1c[nH]cn1	> 500 µM (inactive)
CCOP(=O)(/C=C/n1cnc2c(=O)n(C(C)=O)c(N)nc21)OCC	> 100 µM (inactive)
CCC1c2[nH]c3ccccc3c2C[C@H]2C(=O)NC(Cc3ccccc3)C(=O)N12 (stereo partly specified)	35.4 µM (inactive)
Nc1ccc(C(=O)/C=C/c2ccccc2O)cc1	> 100 µM (inactive)
CC(CC(=O)Nc1ccc(NC(=O)CC(C)/N=N\C(N)=O)cc1)/N=N\C(N)=O (stereo unspecified)	> 100 µM (inactive)
COC(=O)[C@@H]1[C@@H](c2cccc(Cl)c2)[C@H](C(=O)OC)C2(C[C@@]1(C)O)NCCS2 (stereo partly specified)	> 100 µM (inactive)
COc1ccc2c(c1)CC[C@@H]1C2CC[C@]2(C)C(=N\O)/C(=N/O)CC12 (stereo partly specified)	10.7 µM (inactive)
O=C1c2ccccc2C(=O)c2sc(Nc3ccccc3C(F)(F)F)nc21	8.77 µM (inactive)
Cc1cc(O)ccc1C1(c2ccc(F)cc2)OC(=O)c2ccccc21 (stereo unspecified)	3.78 µM (inactive)
O=C1c2ccccc2C(=O)N1C/C=N/NS(=O)(=O)c1ccc(Cl)cc1	> 100 µM (inactive)
c1ccc2c(c1)c1c(n2CCOCCN2CCOCC2)CCCC1	15.2 µM (inactive)
CCOC(=O)COc1cccc2c1C(=O)CCO2	> 100 µM (inactive)
COc1ccc2cc(CNCCCN3CCN(CCCNCc4ccc5cc(OC)ccc5c4)CC3)ccc2c1	1.78 µM (inactive)

====

- System: SK-MEL-2
- experiment-description: NCI tumour cell line growth inhibition, 48 h
The source made the active and inactive calls. Rule as the data show it: active = GI50 up to about 1.1 µM and inactive = higher.
Catalogue of GI50 readings, one per entry.

compound	GI50
C[C@@H](NC1CCCC[C@H]1O)c1ccccc1 (stereo partly drawn)	> 100 µM (inactive)
CCCCNc1nc(C#N)c(N)s1	> 100 µM (inactive)
CC(CC(=O)Nc1ccc(NC(=O)CC(C)/N=N\C(N)=O)cc1)/N=N\C(N)=O (stereo not drawn)	> 100 µM (inactive)

====

- Tested on: SN12C
- experiment-description: NCI tumour cell line growth inhibition, 48 h
Activity calls are given as the source filed them. Rule as the data show it: active = GI50 up to about 1.1 µM and inactive = higher.

compound	GI50
COc1ccc(/C=C2\CCC/C(=C\c3ccc(O)c(CN4CCCCC4)c3)C2=O)cc1	4.76 µM (inactive)
NC(=O)C12C3C4C1C1C2C3C41C(N)=O (stereo unspecified)	> 100 µM (inactive)
NCCCN(CCCN(C(=O)Nc1ccccc1)c1ccccc1)C(=O)Nc1ccccc1	64.9 µM (inactive)
CCOC(=O)c1cn2c([nH]c3ccccc32)c(C#N)c1=O	> 100 µM (inactive)
Clc1ccc(-c2c(C3=NCCN3)nnn2-c2ccc(Cl)cc2)cc1	71.4 µM (inactive)
Nc1nc(Cl)cc(NCC2(CO)CCC(Cc3ccccc3)C2)n1 (stereo unspecified)	52.7 µM (inactive)
